- EXPERIMENT: melting temperature; fluorescence melt of hairpins on a sequencing array, two-state fit, raised by 9.35 °C to match UV melts
- ASSAY SETUP: sodium 0.088 M
Lab note: anything with Tm at or over 40 °C counts as yes; the rest go in no.

SEQUENCE STRING	GROUP LABEL
CGATTCGGAAACGATTCG (((.(((....))).)))	yes
GCAGTCCGAAAGGATTGC (((.(((....))).)))	yes
GATCCCATTCGGGATC ((((((....))))))	yes
GATCACGTGCGTGATC ((((((....))))))	yes
GATCCGAGACCGGATC ((((((....))))))	yes
GTGGACGGAAACGTTCGC (.(.(((....))).).)	yes
GGAAGAGGAAACTTTTCC ((((.((....)).))))	no
GCTCGACGAAAGTCAGC (((.(((....))))))	yes
GAGTTTGGAAACAAACCC (.(((((....))))).)	no
GGACTCGAAAGAGTATCC ((((((....)))..)))	no
GTAGGTGGAAACGCTTAC (((.(.(....).).)))	no
GATCCGTGTCCGGATC ((((((....))))))	yes
GGCACCGAAAGGTATGCC ((((((....)))..)))	yes
GATCACTTGCGTGATC ((((((....))))))	yes
GAGGTCGGAAACAACCTC (((((.(....).)))))	yes
GATCGCCGACGCGATC ((((((....))))))	yes
GTTTGCGAAAGCAATAAC ((((((....)))..)))	no
GCATACGGAAACGTATAC (.(((((....))))).)	no
GATCTCGACGGAGATC ((((((....))))))	yes
GCCTTGCGAAAGCAGGGC (((.(((....))).)))	yes
GATCATGGAAACGTGATC (((((.(....).)))))	yes
GCTCAGCGAAAGCTTTGC ((..(((....)))..))	no
GGGTCCGAAAGGAGGCCC ((((((....)))..)))	yes
GACCGGCGAAAGCCTGTC (((.(((....))).)))	yes
GATTTTGGAAACAAGATC (((.(((....))).)))	no
GGCGTCGGAAACAACGCC (((((.(....).)))))	yes
GGAACCGAAAGGTTCTCC ((((((....)))..)))	yes
GCGATCGAAAGATTCCGC ((((((....)))..)))	no
GCGAGTGGAAACATTCGC ((((.((....)).))))	yes
GGATGTGGAAACGCATCC (((((.(....).)))))	yes
GCCTCCGCGAAAGCGGGC (((..(((....))))))	yes
TGGAGGAAACTCCA (((((....)))))	yes
GACATTGGAAACGATGTC (((((.(....).)))))	yes
GGCCATTCGAAAGAAGCC (((..(((....))))))	no
GTCCGCGGAAACGTGGGC (.((.((....)).)).)	yes
GCATCAGGAAACTGATAC (.(((((....))))).)	no
GATCGGCCCGCCGATC ((((((....))))))	yes
GGCTTACCGAAAGGTGCC (((..(((....))))))	yes
GATCTCGCCCGAGATC ((((((....))))))	yes
GCTCACGGAAACATGAGC (((((.(....).)))))	yes
GATCATAGTAATGATC ((((((....))))))	yes
GTCCGATCGAAAGATGAC (((..(((....))))))	no
GCACTCGAAAGAGCATGC ((((((....)))..)))	no
GACGTAGGAAACTGCGTC ((((.((....)).))))	yes
GGCAAATCGAAAGATGCC (((..(((....))))))	yes
GTATGCGAAAGCAGATAC ((((((....)))..)))	no
GACCGCGGAAACGCGATC ((.((((....)))).))	yes
CGGCTTCGGAAACGACCG (((..(((....))))))	no
GATCCGGCTGCGGATC ((((((....))))))	yes
GCGATGCGAAAGCTCCGC (((..((....))..)))	yes
